# Test system: P388
# method_summary: Antitumor effect by MTT assay, P388 tumor cells
# Format: cell-based
# settings: Mus musculus, P388, 72 h, read-out: GI50 Value
I'd appreciate it if you marked entries Criterion met when GI50 is lower than 0.8 ng/mL and Criterion not met when it is not.

Reference set (5 entries):
COC(=O)CCC1C(=O)[C@@]2(C)[C@H]([C@H](OC(=O)c3ccccc3)[C@]3(O)C[C@H](OC(=O)[C@H](O)[C@@H](NC(=O)OC(C)(C)C)c4ccccc4)C(C)=C1C3(C)C)[C@]1(OC(C)=O)CO[C@@H]1C[C@@H]2O (stereo partly shown) [Example 7] :: Criterion not met
CC(=O)O[C@H]1C(=O)[C@@]2(C)[C@H]([C@H](OC(=O)c3ccccc3)[C@]3(O)C[C@H](OC(=O)[C@H](O)[C@@H](NC(=O)c4ccccc4)c4ccccc4)C(C)=C1C3(C)C)[C@]1(OC(C)=O)CO[C@@H]1C[C@@H]2O [Taxol] :: Criterion not met
CCC(=O)O[C@@]12CO[C@@H]1C[C@H](O)[C@@]1(C)C(=O)C(CCN3CCOCC3)C3=C(C)[C@@H](OC(=O)[C@H](O)[C@@H](NC(=O)OC(C)(C)C)c4ccccc4)C[C@@](O)([C@@H](OC(=O)c4ccccc4)[C@H]21)C3(C)C (stereo partly shown) [Example 26] :: Criterion not met
CCC(=O)O[C@@]12CO[C@@H]1C[C@H](O)[C@@]1(C)C(=O)C(CCN3CCOCC3)C3=C(C)[C@@H](OC(=O)C(O)C(C=C(C)C)NC(=O)OC(C)(C)C)C[C@@](O)([C@@H](OC(=O)c4ccccc4)[C@H]21)C3(C)C (single isomer, unassigned) [Example 33 Isomer B] :: Criterion met
CC(=O)O[C@@]12CO[C@@H]1C[C@H](O)[C@@]1(C)C(=O)C(CC=O)C3=C(C)[C@@H](OC(=O)[C@H](O)[C@@H](NC(=O)OC(C)(C)C)c4ccccc4)C[C@@](O)([C@@H](OC(=O)c4ccccc4)[C@H]21)C3(C)C (stereo partly shown) [Example 18] :: Criterion not met

Inquiry: # TODO verify GI50 < 0.8 ng/mL strictly for this molecule: CCCC(=O)O[C@@]12CO[C@@H]1C[C@H](O)[C@@]1(C)C(=O)C(CCN3CCOCC3)C3=C(C)[C@@H](OC(=O)[C@H](O)[C@@H](NC(=O)OC(C)(C)C)c4ccccc4)C[C@@](O)([C@@H](OC(=O)c4ccccc4)[C@H]21)C3(C)C (stereo partly shown) [Example 24]
Reply text: Criterion not met

Inquiry: Criterion: GI50 strictly below 0.8 ng/mL. Is it met by CC1=C2C(CCN3CCOCC3)C(=O)[C@@]3(C)[C@H]([C@H](OC(=O)c4ccccc4)[C@](O)(C[C@@H]1OC(=O)[C@H](O)[C@@H](NC(=O)OC(C)(C)C)c1ccccc1)C2(C)C)[C@]1(OC(=O)C2CC2)CO[C@@H]1C[C@@H]3O (stereo partly shown) [Example 36] ?
Reply text: Criterion met

Inquiry: Lab log: compare recorded GI50 with 0.8 ng/mL; is it strictly lower for CCOC(=O)O[C@@]12CO[C@@H]1C[C@H](O)[C@@]1(C)C(=O)C(CCN3CCOCC3)C3=C(C)[C@@H](OC(=O)[C@H](O)[C@@H](NC(=O)OC(C)(C)C)c4ccccc4)C[C@@](O)([C@@H](OC(=O)c4ccccc4)[C@H]21)C3(C)C (stereo partly shown) [Example 35] ?
Reply text: Criterion met

Inquiry: Identify whether the molecule C=CCC1C(=O)[C@@]2(C)[C@H]([C@H](OC(=O)c3ccccc3)[C@]3(O)C[C@H](OC(=O)[C@H](O)[C@@H](NC(=O)OC(C)(C)C)c4ccccc4)C(C)=C1C3(C)C)[C@]1(OC(C)=O)CO[C@@H]1C[C@@H]2O (stereo partly shown) [Example 16] records GI50 below 0.8 ng/mL.
Reply text: Criterion not met

Inquiry: Quick check: does CCC(=O)O[C@@]12CO[C@@H]1C[C@H](O)[C@@]1(C)C(=O)C(CCN3CCOCC3)C3=C(C)[C@@H](OC(=O)[C@H](O)[C@@H](NC(=O)OC(C)(C)C)c4ccco4)C[C@@](O)([C@@H](OC(=O)c4ccccc4)[C@H]21)C3(C)C (stereo partly shown) [Example 31] have GI50 under 0.8 ng/mL?
Reply text: Criterion met

# credit: patent US5767296A
